B1: PTPRD (parent)
chain: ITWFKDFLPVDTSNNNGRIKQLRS

Variants of: B1
Experiment: protein stability index of a GFP-peptide fusion (GPS, HEK-293T) (PSI 1-6); higher = more stable;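 note: lentivirally expressed fusions sorted by FACS into six bins by GFP to DsRed ratio, PSI derived from sequencing read proportions per bin multiplied by bin number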
Conditions: c terminus: a fixed tail appended
observable: protein stability index
Give the figure by itself; no unit, no explanation.

Reference set (2 entries):
itemSequence | numericResult
ITWFKDFLPVDTSNNNGRIKQGRS [L22G] | 1.84
ITWFKHFLPVDTSNNNGRIKQLRS [D6H] | 1.9

Give the value of protein stability index reported for the following: ITWFKDFLPVDTSNNHGRIKQLRS [N16H]
1.58

Let me know recorded protein stability index for ITWFKDFLPVDTSNNNGRIKQLPS [R23P] , thanks.
1.8

Using the record for ITWFKDFLPADTSNNNGRIKQLRS [V10A] , state its measured protein stability index.
2.03

Answer with the recorded protein stability index for the variant listed here: ITWFKDFLPVDTSNNNGRIKQLSS [R23S]
1.83

Provide protein stability index value for the following variant: ITWFKDFLPVDLSNNNGRIKQLRS [T12L]
1.94

# return recorded protein stability index for input ITWFNDFLPVDTSNNNGRIKQLRS [K5N]
2.12

Name the recorded protein stability index of the item ITGFKDFLPVDTSNNNGRIKQLRS [W3G] in your answer.
3.03

Consider the variant ITYFKDFLPVDTSNNNGRIKQLRS [W3Y] . State its measured protein stability index.
2.95

Answer with the recorded protein stability index of ITWIKDFLPVDTSNNNGRIKQLRS [F4I] only.
1.62

Name the recorded protein stability index of the variant listed here: ITWFKDFLPVDTSNNNKRIKQLRS [G17K]
2.86

Determine its reported protein stability index: ITWFKDCLPVDTSNNNGRIKQLRS [F7C]
2.31

Identify measured protein stability index corresponding to ITWFKDFLPVDTMNNNGRIKQLRS [S13M]
2.17

Answer with the recorded protein stability index of ITWFKDFLPVDTSNNNGRIKALRS [Q21A] only.
1.57

// fetch protein stability index given entry ITWFKDFLPVDTSNNNGRIKQLCS [R23C]
1.43

Tell us which protein stability index value is on record for ITWFKDFLPVDTSNNNGRIKNLRS [Q21N]
1.99

Report protein stability index, nothing else, for this variant: ITWFKDFLPVDTSNNNGRKKQLRS [I19K]
2.33

Could you please provide reported protein stability index for ITWFKDFLPVDTSNNNGRIKLLRS [Q21L] ? Thanks!
1.73

Provide one value: measured protein stability index of ITWFKDVLPVDTSNNNGRIKQLRS [F7V]
1.85

Reference source: the supplement of paper PMC10567573
